Test System: T1, rat PrRP receptor in RC-4B/C cells (rat, UniProt Q64121 1-370)
T1 construct: whole, on cells; endogenous receptor of RC-4B/C cells (ATCC); also called rat receptor; GPR10 receptor expressed in rat hypophyseal cells
T1 sequence (looked up): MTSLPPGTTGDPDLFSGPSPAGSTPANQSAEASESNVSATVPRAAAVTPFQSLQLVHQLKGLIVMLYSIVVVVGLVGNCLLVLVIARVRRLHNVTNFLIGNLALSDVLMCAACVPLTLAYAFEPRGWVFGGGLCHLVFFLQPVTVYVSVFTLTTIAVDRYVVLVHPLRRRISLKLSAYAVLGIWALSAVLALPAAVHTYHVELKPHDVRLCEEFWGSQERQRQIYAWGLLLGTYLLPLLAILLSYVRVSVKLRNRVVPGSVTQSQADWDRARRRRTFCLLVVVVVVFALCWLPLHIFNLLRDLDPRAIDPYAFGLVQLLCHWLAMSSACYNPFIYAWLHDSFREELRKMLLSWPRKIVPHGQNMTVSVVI
Test Method Notes: competition with 125I-rat PrRP31, RC-4B/C cells
Square brackets hold non-standard residues; d marks the D form. Ends that are not written are not given here. * marks the point of attachment. Stearoyl = CCCCCCCCCCCCCCCCCC(=O)*; Palmitoyl = CCCCCCCCCCCCCCCC(=O)*; Nle = CCCC[C@H](N)C(=O)O
Label rule, in plain words: % of PrRP31 of 400% and up is Criterion met, under 400% is Criterion not met.

Form field: % of PrRP31 at least 400%? Entry: SRTHRHSMEIRTPDINPAWYASRGIRPVGRF ((N-palm)γ-E at the N-terminus (palmitoyl through gamma-glutamic acid); C-terminal amide) [analog no. 54]
Criterion not met

// next record SRAHQHS[Nle]ETRTPDINPAWYTGRGIRPVGRF-NH2 [analog no. 3]
Criterion not met

Item: Stearoyl-SRAHQHS[Nle]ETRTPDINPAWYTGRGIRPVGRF-NH2 [analog no. 9]
Criterion met

Try TPDINPAWYTGRGIRPVGRF-NH2 (synthetic peptide) [Rat PrRP20] next.
Criterion not met

Also, Palmitoyl-SRAHQHS[Nle]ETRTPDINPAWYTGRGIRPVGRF-NH2 [analog no. 8] please.
Criterion met

Next up: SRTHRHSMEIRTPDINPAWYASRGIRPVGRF-NH2 (synthetic peptide) [Human PrRP31]
Criterion not met
